System: MCF7
ASSAY NOTES: Growth inhibition of human MCF7 cells after 48 hrs by MTT assay
Assay type: functional
# if measured GI50 < 2 µM: 1 (yes)  # else: 0 (no)

Inquiry: Quick check: does CNc1nc(C)c(-c2nc(Nc3cc(C)cc(N4CCCCCC4)c3)ncc2C#N)s1 have GI50 under 2 µM?
Reply text: 0 (no)

Inquiry: Quick check: does CNc1nc(C)c(-c2nc(Nc3cccc(N4CCNCC4)c3)ncc2C)s1 have GI50 under 2 µM?
Reply text: 1 (yes)

Inquiry: Quick check: does CNc1nc(C)c(-c2nc(Nc3cccc(N4CCN(S(C)(=O)=O)CC4)c3)ncc2C)s1 have GI50 under 2 µM?
Reply text: 1 (yes)

Inquiry: Quick check: does CC(=O)N1CCN(c2cccc(Nc3ncc4c(n3)-c3sc(N)nc3CC4)c2)CC1 have GI50 under 2 µM?
Reply text: 1 (yes)

Inquiry: Quick check: does CNc1nc(C)c(-c2nc(Nc3cccc(N4CCCNCC4)c3)ncc2C)s1 have GI50 under 2 µM?
Reply text: 1 (yes)

Inquiry: Quick check: does CNc1nc(C)c(-c2nc(Nc3cccc(N4CCN(C)CC4)c3)ncc2C)s1 have GI50 under 2 µM?
Reply text: 1 (yes)

Inquiry: Quick check: does CNc1nc(C)c(-c2nc(Nc3cccc(N4CCCCCC4)c3)ncc2C#N)s1 have GI50 under 2 µM?
Reply text: 0 (no)

Inquiry: Quick check: does CNc1nc(C)c(-c2ccnc(Nc3cc(N4CCN(C(C)=O)CC4)cc(N4CCN(C(C)=O)CC4)c3)n2)s1 have GI50 under 2 µM?
Reply text: 1 (yes)

Inquiry: Quick check: does C=Cc1cnc(Nc2cccc(N3CCOCC3)c2)nc1-c1sc(NC)nc1C have GI50 under 2 µM?
Reply text: 0 (no)

Inquiry: Quick check: does CN1CC[C@H](c2c(O)cc(O)c3c(=O)cc(-c4ccccc4Cl)oc23)[C@H](O)C1 [ALVOCIDIB] have GI50 under 2 µM?
Reply text: 1 (yes)

Inquiry: Quick check: does CNc1nc(C)c(-c2nc(Nc3cccc(N4CCNC(=O)CC4)c3)ncc2C)s1 have GI50 under 2 µM?
Reply text: 0 (no)

Inquiry: Quick check: does CNc1nc(C)c(-c2nc(Nc3cccc(N4CCOCC4)c3)ncc2Cl)s1 have GI50 under 2 µM?
Reply text: 1 (yes)

Inquiry: Quick check: does CNc1nc(C)c(-c2ccnc(Nc3cc(N4CCOCC4)cc(N4CCOCC4)c3)n2)s1 have GI50 under 2 µM?
Reply text: 1 (yes)

Inquiry: Quick check: does CNc1nc(C)c(-c2nc(Nc3cc(N4CCN(C(C)=O)CC4)cc(N4CCN(C(C)=O)CC4)c3)ncc2C#N)s1 have GI50 under 2 µM?
Reply text: 0 (no)

Inquiry: Quick check: does CNc1ncc(-c2ccnc(Nc3cccc(N4CCCNCC4)c3)n2)s1 have GI50 under 2 µM?
Reply text: 1 (yes)

Inquiry: Quick check: does CNc1nc(C)c(-c2nc(Nc3cc(N4CCOCC4)cc(N4CCOCC4)c3)ncc2C#N)s1 have GI50 under 2 µM?
Reply text: 1 (yes)

Inquiry: Quick check: does CNc1nc(C)c(-c2nc(Nc3cccc(N4CCN(C(C)=O)CC4)c3)ncc2C(F)(F)F)s1 have GI50 under 2 µM?
Reply text: 0 (no)

Inquiry: Quick check: does CNc1nc(C)c(-c2nc(Nc3cc(C)cc(N4CCNCC4)c3)ncc2C#N)s1 have GI50 under 2 µM?
Reply text: 1 (yes)

Inquiry: Quick check: does CNc1nc(C(C)C)c(-c2ccnc(Nc3cccc(N4CCN(C(C)=O)CC4)c3)n2)s1 have GI50 under 2 µM?
Reply text: 1 (yes)

Inquiry: Quick check: does CNc1nc(C)c(-c2nc(Nc3cccc(N4CCN(C(C)=O)CC4)c3)ncc2C)s1 have GI50 under 2 µM?
Reply text: 0 (no)

###

MEASUREMENT TARGET: CDK9/cyclin T1 (Homo sapiens)
Sequence (O60563 whole entry): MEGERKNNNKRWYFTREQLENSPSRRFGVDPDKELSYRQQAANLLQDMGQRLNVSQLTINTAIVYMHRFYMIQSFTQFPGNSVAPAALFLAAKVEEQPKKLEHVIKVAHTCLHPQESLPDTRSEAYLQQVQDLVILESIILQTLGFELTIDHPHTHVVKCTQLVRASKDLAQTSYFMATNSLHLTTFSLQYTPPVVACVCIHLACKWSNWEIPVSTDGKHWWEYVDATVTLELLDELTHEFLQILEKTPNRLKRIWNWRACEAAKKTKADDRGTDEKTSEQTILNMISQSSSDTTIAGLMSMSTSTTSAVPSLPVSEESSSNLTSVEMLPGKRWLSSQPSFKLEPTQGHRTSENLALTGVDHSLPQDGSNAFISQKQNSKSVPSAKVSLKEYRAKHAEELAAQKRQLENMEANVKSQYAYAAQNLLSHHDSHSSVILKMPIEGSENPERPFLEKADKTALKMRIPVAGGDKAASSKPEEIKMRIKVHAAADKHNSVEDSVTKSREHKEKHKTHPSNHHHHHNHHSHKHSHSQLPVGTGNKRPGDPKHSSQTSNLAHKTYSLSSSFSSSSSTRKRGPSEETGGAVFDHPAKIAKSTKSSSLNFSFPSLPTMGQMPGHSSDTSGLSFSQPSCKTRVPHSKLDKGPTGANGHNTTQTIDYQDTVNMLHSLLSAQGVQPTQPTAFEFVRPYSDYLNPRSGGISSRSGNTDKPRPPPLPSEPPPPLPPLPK
Sequence (P50750 whole entry): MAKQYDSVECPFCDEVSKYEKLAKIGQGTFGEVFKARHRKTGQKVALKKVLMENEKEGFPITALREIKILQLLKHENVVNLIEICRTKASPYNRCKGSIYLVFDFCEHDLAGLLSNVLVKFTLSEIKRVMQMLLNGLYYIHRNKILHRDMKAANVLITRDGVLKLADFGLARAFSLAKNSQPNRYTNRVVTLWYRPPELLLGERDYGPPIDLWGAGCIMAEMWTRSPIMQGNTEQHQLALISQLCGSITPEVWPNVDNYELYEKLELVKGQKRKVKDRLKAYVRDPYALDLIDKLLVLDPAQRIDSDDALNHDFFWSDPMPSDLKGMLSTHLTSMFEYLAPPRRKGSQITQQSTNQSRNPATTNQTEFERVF
ASSAY NOTES: Inhibition of recombinant human full length CDK9/Cyclin T1 using KTFCGTPEYLAPEVRREPRILSEEEQEMFRDFDYIADWC as substrate incubated for 40 mins in presence of [gamma-33P]-ATP by scintillation counting method
I'd be grateful if you could share measured pKi for these entries.
# reply with the number alone; pKi is -log10 of concentration in mol/L

Inquiry: Recall the reported pKi of CNc1nc(C)c(-c2nc(Nc3cc(C)cc(N4CCNCC4)c3)ncc2C#N)s1 on CDK9/cyclin T1 (Homo sapiens) and write it down.
Reply text: 8.22

Inquiry: Recall the reported pKi of CNc1nc(C)c(-c2nc(Nc3cccc(N4CCN(C(C)=O)CC4)c3)ncc2Br)s1 on CDK9/cyclin T1 (Homo sapiens) and write it down.
Reply text: 8.12

Inquiry: Recall the reported pKi of CNc1ncc(-c2ccnc(Nc3cccc(N4CCCNCC4)c3)n2)s1 on CDK9/cyclin T1 (Homo sapiens) and write it down.
Reply text: 8.52

Inquiry: Recall the reported pKi of CNc1nc(C)c(-c2nc(Nc3cccc(N4CCN(C)CC4)c3)ncc2C)s1 on CDK9/cyclin T1 (Homo sapiens) and write it down.
Reply text: 7.70

Inquiry: Recall the reported pKi of CNc1nc(C)c(-c2ccnc(Nc3cc(N4CCOCC4)cc(N4CCOCC4)c3)n2)s1 on CDK9/cyclin T1 (Homo sapiens) and write it down.
Reply text: 7.33

Inquiry: Recall the reported pKi of CC(=O)N1CCN(c2cccc(Nc3ncc4c(n3)-c3sc(N)nc3CC4)c2)CC1 on CDK9/cyclin T1 (Homo sapiens) and write it down.
Reply text: 7.47

Inquiry: Recall the reported pKi of CNc1nc(C)c(-c2nc(Nc3cc(C)cc(N4CCCCCC4)c3)ncc2C#N)s1 on CDK9/cyclin T1 (Homo sapiens) and write it down.
Reply text: 7.60

Inquiry: Recall the reported pKi of CNc1nc(C)c(-c2nc(Nc3cccc(N4CCNC(=O)CC4)c3)ncc2C)s1 on CDK9/cyclin T1 (Homo sapiens) and write it down.
Reply text: 7.72

Inquiry: Recall the reported pKi of CNc1nc(C)c(-c2nc(Nc3cc(C)cc(N4CCOCC4)c3)ncc2C#N)s1 on CDK9/cyclin T1 (Homo sapiens) and write it down.
Reply text: 8.30

Inquiry: Recall the reported pKi of CNc1nc(C)c(-c2nc(Nc3cccc(N4CCN(S(C)(=O)=O)CC4)c3)ncc2C)s1 on CDK9/cyclin T1 (Homo sapiens) and write it down.
Reply text: 8.15

Inquiry: Recall the reported pKi of CNc1nc(C)c(-c2nc(Nc3cccc(N4CCN5CCC4CC5)c3)ncc2C)s1 on CDK9/cyclin T1 (Homo sapiens) and write it down.
Reply text: 8.00

Inquiry: Recall the reported pKi of CNc1nc(C)c(-c2nc(Nc3cc(N4CCOCC4)cc(N4CCOCC4)c3)ncc2C#N)s1 on CDK9/cyclin T1 (Homo sapiens) and write it down.
Reply text: 8.05

Inquiry: Recall the reported pKi of CNc1nc(C)c(-c2nc(Nc3cc(N4CCN(C(C)=O)CC4)cc(N4CCN(C(C)=O)CC4)c3)ncc2C)s1 on CDK9/cyclin T1 (Homo sapiens) and write it down.
Reply text: 7.37

Inquiry: Recall the reported pKi of CNc1nc(C(C)C)c(-c2ccnc(Nc3cccc(N4CCN(C(C)=O)CC4)c3)n2)s1 on CDK9/cyclin T1 (Homo sapiens) and write it down.
Reply text: 7.04

Inquiry: Recall the reported pKi of CNc1nc(C)c(-c2nc(Nc3cccc(N4CCCNCC4)c3)ncc2C)s1 on CDK9/cyclin T1 (Homo sapiens) and write it down.
Reply text: 8.10

###

MEASUREMENT TARGET: CDK2/Cyclin A2 (Homo sapiens)
ASSAY NOTES: Inhibition of recombinant human full length CDK2/Cyclin A using histone H1 as substrate incubated for 40 mins in presence of [gamma-33P]-ATP by scintillation counting method
MEASURED PARAMETER: pKi
# reply with the number alone; pKi is -log10 of concentration in mol/L

Inquiry: Provide pKi value for the following compound: CNc1nc(C)c(-c2ccnc(Nc3cc(N4CCOCC4)cc(N4CCOCC4)c3)n2)s1
Reply text: 6.08

Inquiry: Provide pKi value for the following compound: CNc1nc(C)c(-c2nc(Nc3cccc(N4CCN(C)CC4)c3)ncc2C)s1
Reply text: 6.23

Inquiry: Provide pKi value for the following compound: CNc1nc(C)c(-c2nc(Nc3cccc(N4CCCNCC4)c3)ncc2C)s1
Reply text: 5.91

Inquiry: Provide pKi value for the following compound: CNc1nc(C)c(-c2nc(Nc3cccc(N4CCN(C(C)=O)CC4)c3)ncc2C(F)(F)F)s1
Reply text: 5.91

Inquiry: Provide pKi value for the following compound: CNc1nc(C)c(-c2nc(Nc3cccc(N4CCOCC4)c3)ncc2Cl)s1
Reply text: 7.66

Inquiry: Provide pKi value for the following compound: CNc1nc(C)c(-c2nc(Nc3cccc(N4CCOCC4)c3)ncc2C)s1
Reply text: 6.35

Inquiry: Provide pKi value for the following compound: CNc1nc(C(C)C)c(-c2ccnc(Nc3cccc(N4CCN(C(C)=O)CC4)c3)n2)s1
Reply text: 6.17

Inquiry: Provide pKi value for the following compound: C=Cc1cnc(Nc2cccc(N3CCOCC3)c2)nc1-c1sc(NC)nc1C
Reply text: 6.30

Inquiry: Provide pKi value for the following compound: CNc1nc(C)c(-c2nc(Nc3cc(C)cc(N4CCCCCC4)c3)ncc2C#N)s1
Reply text: 7.28

Inquiry: Provide pKi value for the following compound: CNc1nc(C)c(-c2nc(Nc3cccc(N4CCN(C(C)=O)CC4)c3)ncc2Br)s1
Reply text: 6.90

Inquiry: Provide pKi value for the following compound: CNc1nc(C)c(-c2nc(Nc3cc(C)cc(N4CCOCC4)c3)ncc2C#N)s1
Reply text: 7.80

Inquiry: Provide pKi value for the following compound: CNc1nc(C)c(-c2nc(Nc3cccc(N4CCN(S(C)(=O)=O)CC4)c3)ncc2C)s1
Reply text: 7.06
